- Test system: KB
- Protocol details: Cytotoxicity against human KB cells
- Format: functional
- Experimental setup: read-out: ED50 (the source's name)
Parameter: EC50. Scope: all listed entries.
Readout kind: EC50 (ng/mL)

INSERT INTO results (structure_notation, measurement) VALUES
  ('CCO[C@]12C[C@H](OC(=O)N1)[C@@H](C)[C@@H]1O[C@@]1(C)[C@@H](OC(=O)[C@H](C)N(C)C(=O)C(C)C)CC(=O)N(C)c1cc(cc(OC)c1Cl)C/C(C)=C/C=C/[C@H]2OC', 1.2),
  ('COc1cc2cc(c1Cl)N(C)C(=O)/C=C/[C@]1(C)O[C@H]1[C@H](C)[C@@H]1C[C@@](O)(NC(=O)O1)[C@H](OC)/C=C/C=C(\C)C2', 25),
  ('COc1cc2cc(c1Cl)NC(=O)/C=C/C(C)=C/[C@H](C)[C@@H]1C[C@@](O)(NC(=O)O1)[C@H](OC)/C=C/C=C(\C)C2', 2),
  ('CCC(=O)O[C@H]1CC(=O)N(C)c2cc(cc(OC)c2Cl)C/C(C)=C/C=C/[C@@H](OC)[C@@]2(O)C[C@H](OC(=O)N2)[C@@H](C)[C@@H]2O[C@@]12C', 0.21);

###

- System: Mus musculus
- Protocol details: Toxicity in PS mouse allografted with mouse P388 cells assessed as survival at 25 ug/kg after 4 days
- Format: organism-based
- Experimental setup: in vivo, 0.025 mg/kg, 96 h
Readout kind: Activity

INSERT INTO measurements (structure_notation, measurement) VALUES
  ('COc1cc2cc(c1Cl)NC(=O)/C=C/[C@]1(C)O[C@H]1[C@H](C)[C@@H]1C[C@@](O)(NC(=O)O1)[C@H](OC)/C=C/C=C(\C)C2', 'Non-toxic'),
  ('COc1cc2cc(c1Cl)N(C)C(=O)C[C@H](OC(=O)[C@H](C)N(C)C(=O)C(C)C)[C@]1(C)O[C@H]1[C@H](C)[C@@H]1C[C@@](O)(NC(=O)O1)[C@H](OC)/C=C/C=C(\C)C2', 'Non-toxic'),
  ('COc1cc2cc(c1Cl)N(C)C(=O)C[C@H](OC(C)=O)[C@]1(C)O[C@H]1[C@H](C)[C@@H]1C[C@@](O)(NC(=O)O1)[C@H](OC)/C=C/C=C(\C)C2', 'Non-toxic'),
  ('COc1cc2cc(c1Cl)N(C)C(=O)/C=C/[C@]1(C)O[C@H]1[C@H](C)[C@@H]1C[C@@](O)(NC(=O)O1)[C@H](OC)/C=C/C=C(\C)C2', 'Non-toxic'),
  ('COc1cc2cc(c1Cl)NC(=O)/C=C/C(C)=C/[C@H](C)[C@@H]1C[C@@](O)(NC(=O)O1)[C@H](OC)/C=C/C=C(\C)C2', 'Non-toxic'),
  ('COc1cc2cc(c1Cl)N(C)C(=O)C[C@H](OC(=O)[C@H](C)N(C)C(C)=O)[C@]1(C)O[C@H]1[C@H](C)[C@@H]1C[C@@](O)(NC(=O)O1)[C@H](OC)/C=C/C=C(\C)C2', 'Non-toxic');

###

- Tested on: Mus musculus
- Protocol details: Toxicity in PS mouse allografted with mouse P388 cells assessed as change in body weight at 25 ug/kg relative to control
- Assay type: organism-based
- Experimental setup: in vivo, 0.025 mg/kg
criterion met if Activity is below 0.5 g. criterion not met if not; exact matches included in criterion not met.

INSERT INTO assay_data (structure_notation, discrete_label) VALUES
  ('COc1cc2cc(c1Cl)N(C)C(=O)C[C@H](OC(=O)[C@H](C)N(C)C(=O)CC(C)C)[C@]1(C)O[C@H]1[C@H](C)[C@@H]1C[C@@](O)(NC(=O)O1)[C@H](OC)/C=C/C=C(\C)C2', 'criterion met'),
  ('COc1cc2cc(c1Cl)NC(=O)/C=C/C(C)=C/[C@H](C)[C@@H]1C[C@@](O)(NC(=O)O1)[C@H](OC)/C=C/C=C(\C)C2', 'criterion met'),
  ('COc1cc2cc(c1Cl)N(C)C(=O)/C=C/[C@]1(C)O[C@H]1[C@H](C)[C@@H]1C[C@@](O)(NC(=O)O1)[C@H](OC)/C=C/C=C(\C)C2', 'criterion not met'),
  ('CCCS[C@]12C[C@H](OC(=O)N1)[C@@H](C)[C@@H]1O[C@@]1(C)[C@@H](OC(=O)[C@H](C)N(C)C(=O)C(C)C)CC(=O)N(C)c1cc(cc(OC)c1Cl)C/C(C)=C/C=C/[C@H]2OC', 'criterion not met'),
  ('COc1cc2cc(c1Cl)N(C)C(=O)C[C@H](OC(C)=O)[C@]1(C)O[C@H]1[C@H](C)[C@@H]1C[C@@](O)(NC(=O)O1)[C@H](OC)/C=C/C=C(\C)C2', 'criterion met');
